# Lookup of reported pIC50 keyed by entry
System: forty-four human cancer cell lines
Test: Cell proliferation assay (ATPlite, 72 hours) in the 44 cell line Oncolines panel
Type: cell-based
Details: Homo sapiens, CAL-27, read-out: cell panel IC50, CAL 27
Keep in mind that pIC50 stands for -log10 of concentration in molar terms.

Cc1nc(Nc2ncc(C(=O)Nc3c(C)cccc3Cl)s2)cc(N2CCN(CCO)CC2)n1 [dasatinib]: 6.82

get_value(item= COc1cc2nccc(Oc3ccc(NC(=O)C4(C(=O)Nc5ccc(F)cc5)CC4)cc3)c2cc1OC [cabozantinib] , readout=pIC50) returns 4.63

get_value(item= COc1cc(Nc2c(C#N)cnc3cc(OCCCN4CCN(C)CC4)c(OC)cc23)c(Cl)cc1Cl [bosutinib] , readout=pIC50) returns 5.77

Source of measurements: paper PMC3961306
